system.name: Prostaglandin G/H synthase 1 (Ovis aries)
protocol: Percent inhibition against Prostaglandin G/H synthase 1 from ram seminal vesicles at 100 uM
metric: inhibition (%)
Please reply with the bare figure in % and do not write the unit itself.

// worked examples, inhibition included
INSERT INTO measurements (structure_string, quantitative_result) VALUES
  ('O=C(/C=C/c1ccc(O)cc1)CC(=O)/C=C/c1ccc(O)cc1', 41.7),
  ('COc1cc(/C=C/C(O)=C/C(=O)/C=C/c2ccc(O)cc2)ccc1O', 67.8);

Okay, now this molecule:
Inquiry: State its inhibition for this molecule: COc1cc(/C=C/c2cc(/C=C/c3ccc(O)c(OC)c3)[nH]n2)ccc1O
Reply text: 87
